Each recorded value in this set is attributed to ChEMBL document CHEMBL4007408.

- method.summary: Volume of distribution in athymic Nu/Nu Harlan mouse at 10 mg/kg, iv administered as single dose up to 24 hrs by LC-ESI-MS analysis
- Format: ADME, organism-based
- test.conditions: in vivo
observable: Vd (L/kg)

P. c1ccc(-c2ccccc2OCCCCCCn2cc(-c3cccnc3)nn2)cc1
Q. c1ccc(-c2ccccc2-c2cn(CCCCCCCn3cc(-c4cccnc4)nn3)nn2)cc1
R. O=C(/C=C/c1cccnc1)NCCCCC1CCN(C(=O)c2ccccc2)CC1
Problem: List by increasing Vd. Ranked list of labels, please, in the requested order.
Result: R, Q, P

----------
- target: Nicotinamide phosphoribosyltransferase (Mus musculus, UniProt Q99KQ4)
- Sequence (Q99KQ4 whole entry): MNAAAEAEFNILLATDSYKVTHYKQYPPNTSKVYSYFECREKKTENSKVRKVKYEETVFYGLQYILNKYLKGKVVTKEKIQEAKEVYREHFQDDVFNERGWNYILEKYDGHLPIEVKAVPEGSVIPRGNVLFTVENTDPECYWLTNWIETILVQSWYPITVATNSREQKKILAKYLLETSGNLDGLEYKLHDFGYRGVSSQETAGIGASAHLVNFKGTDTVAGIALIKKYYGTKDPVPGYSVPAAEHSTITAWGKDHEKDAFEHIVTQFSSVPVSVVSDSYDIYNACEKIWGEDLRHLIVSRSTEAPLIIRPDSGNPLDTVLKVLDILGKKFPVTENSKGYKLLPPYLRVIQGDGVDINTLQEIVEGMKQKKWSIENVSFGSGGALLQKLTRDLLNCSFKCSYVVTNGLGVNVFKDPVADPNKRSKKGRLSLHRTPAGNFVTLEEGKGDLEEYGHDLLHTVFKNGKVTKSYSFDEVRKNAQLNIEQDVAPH
- method.summary: Inhibition of recombinant mouse NAMPT expressed in bacterial expression system using nicotinamide as substrate after 1 hr by fluorescence based NMNAT-3 enzyme coupled assay
- test.conditions: read-out: IC50
pIC50: −log10 of the molar value.
observable: pIC50

I. c1ccc(-c2ccccc2OCCc2ccc(Cn3cc(-c4cccnc4)nn3)cc2)cc1
II. c1ccc(-c2ccccc2OCCCCCCCn2cc(-c3cccnc3)nn2)cc1
Problem: Compare I and II and name the one whose reported pIC50 is smaller. Field: selected label. Fill in the label of the entry you choose.
Result: II
(II: 7.50, I: 7.81)
